# measurement.setup: in ethanol, 293.15 K
measurement.type: solubility (mole fraction)

INSERT INTO assay_data (smiles_str, number) VALUES
  ('O=Cc1cc(Br)c(O)c(Br)c1', 0.00413);

###

# measurement.setup: in DMF, 303.15 K
measurement.type: solubility (mole fraction)

INSERT INTO measurements (smiles_str, number) VALUES
  ('O=Cc1cc(Br)c(O)c(Br)c1', 0.0157);

###

# measurement.setup: in isopropanol, 318.15 K
measurement.type: solubility (mole fraction)

INSERT INTO assay_data (smiles_str, measurement_type, result) VALUES
  ('O=Cc1cc(Br)c(O)c(Br)c1', 'solubility (mole fraction)', 0.00966);
